- Tested on: UO-31 renal
- EXPERIMENT: NCI tumour cell line growth inhibition, 48 h
Property: TGI; scope: individual compounds

Before answering, review these 8 worked examples.
>>> endpoint_value("COc1ccc(-n2c3c(c4c(CN5CCOCC5)c(O)ccc42)CCc2ccccc2C3=O)cc1")
"> 100 µM"
>>> endpoint_value("O=C1/C(=C/c2ccccc2[N+](=O)[O-])N=C(c2ccccc2)N1C1Nc2cc3c(cc2S1)NC(N1C(=O)/C(=C/c2ccccc2[N+](=O)[O-])N=C1c1ccccc1)S3 (stereo unspecified)")
"> 100 µM"
>>> endpoint_value("CC(=O)OC(OC(C)=O)n1cc(C=O)c2ccccc21")
"> 100 µM"
>>> endpoint_value("COC(=O)/C=C1\\CCC(C)(C(=O)NS(=O)(=O)c2ccc(C)cc2)C1(C)C (stereo unspecified)")
"> 100 µM"
>>> endpoint_value("O=C1NC2(CCCCC2)C2CCCCCC12 (stereo unspecified)")
"> 100 µM"
>>> endpoint_value("O=C(OCC1CO1)c1cccs1 (stereo unspecified)")
"> 100 µM"
>>> endpoint_value("CC(=O)O/N=C1/C(c2c(O)[nH]c3cc(Br)ccc23)=Nc2ccccc21")
"2.4 µM"
>>> endpoint_value("CCCCCCCCCCCCSC(=N)N")
"19.8 µM"

# returns recorded TGI (system: UO-31 renal) for `CC(=O)CCCCO` > 100 µM

# returns recorded TGI (system: UO-31 renal) for `CCOC(=O)/C=C(/C(=O)OCC)n1cc(C)c(=O)n(Cc2cn(COCCOC(C)=O)nn2)c1=O` 7.99 µM

# returns recorded TGI (system: UO-31 renal) for COC(=O)C1(F)C(=O)NC(=O)NC1O (stereo unspecified) > 100 µM
